# pKd values compiled below
Target: T1, human GPC3 (human, UniProt P51654 25-563)
T1 construct: range 25-563; soluble analyte; also called soluble human GPC3; glypican 3
T1 sequence (P51654 25-563 limits assumed): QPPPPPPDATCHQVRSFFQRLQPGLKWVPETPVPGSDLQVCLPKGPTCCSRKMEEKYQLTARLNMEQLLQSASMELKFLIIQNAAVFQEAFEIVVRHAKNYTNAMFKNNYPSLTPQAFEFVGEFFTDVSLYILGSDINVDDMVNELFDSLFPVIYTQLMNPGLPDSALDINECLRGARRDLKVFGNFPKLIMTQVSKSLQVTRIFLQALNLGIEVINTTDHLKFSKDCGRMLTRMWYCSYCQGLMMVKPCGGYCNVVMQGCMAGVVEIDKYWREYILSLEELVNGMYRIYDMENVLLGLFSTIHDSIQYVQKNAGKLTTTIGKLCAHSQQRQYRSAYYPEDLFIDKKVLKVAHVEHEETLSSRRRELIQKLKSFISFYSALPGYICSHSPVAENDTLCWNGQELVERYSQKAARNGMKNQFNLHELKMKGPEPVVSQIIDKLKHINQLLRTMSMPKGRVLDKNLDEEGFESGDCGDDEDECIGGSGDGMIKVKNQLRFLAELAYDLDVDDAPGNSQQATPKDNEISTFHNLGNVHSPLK
Assay: SPR
pKd (log units): -log10 of the concentration in mol/L.

**Q:** Using the record for H0610-G1dh/none-Hi-Kn010G3/L0104-k0 (antibody, V domains shown, one-arm) VH: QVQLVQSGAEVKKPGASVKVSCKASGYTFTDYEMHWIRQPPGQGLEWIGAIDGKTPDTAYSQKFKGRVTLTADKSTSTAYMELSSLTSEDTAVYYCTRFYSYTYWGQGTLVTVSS VL: DIVMTQSPLSLPVTPGEPASISCRSSQSLVHSNRNTYLHWYQQKPGQAPRLLIYKVSFRFSGVPDRFSGSGSGTDFTLKISRVEAEDVGVYYCGQGTQVPYTFGQGTKLEIK , state its measured pKd.
**A:** 8.23

// next item, pKd requested
**Q:** Using the record for H0610-G1dh/none-Hi-Kn010G3/L0264-k0 (antibody, V domains shown, one-arm) VH: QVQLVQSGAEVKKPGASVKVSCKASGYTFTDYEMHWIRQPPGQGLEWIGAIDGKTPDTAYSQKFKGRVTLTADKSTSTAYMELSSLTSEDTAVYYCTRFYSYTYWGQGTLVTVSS VL: DIVMTQSPLSLPVTPGEPASISCRPSQSPVHSNRNTYLHWYQQKPGQAPRLLIYKVSNRFSGVPDRFSGSGSGTDFTLKISRVEAEDVGVYYCAQGTQVPYTFGQGTKLEIK , state its measured pKd.
**A:** 9.66

Entry source: patent US20250066503A1
